Documented % HepG2 viability (33 μM) across a set of compounds
System: HepG2 human hepatocytoma cells
measurement_protocol: Cytotoxicity (MTT) in HepG2 cells
Format: cell-based
condition_description: Table 3; 33 μM
Respond with a number, then the unit of measure.

{"compound": "Cc1cccc2sc(NC(=O)C3CCN(S(=O)(=O)c4cnn(C)c4)CC3)nc12 [VU210]", "assay_result": "67%"}
{"compound": "Cn1cc(S(=O)(=O)N2CCC(C(=O)Nc3nc4ccccc4s3)CC2)cn1 [VU227]", "assay_result": "66%"}
{"compound": "Cc1cc(C)c2sc(NC(=O)C3CCN(S(=O)(=O)c4ccc(F)cc4)CC3)nc2c1 [VU534]", "assay_result": "91%"}
{"compound": "Cc1cccc2sc(NC(=O)C3CCN(S(=O)(=O)c4ccc(F)c(Cl)c4)CC3)nc12 [VU209]", "assay_result": "73%"}
{"compound": "O=C(Nc1nc2ccccc2s1)C1CCN(S(=O)(=O)c2cccnc2)CC1 [VU203]", "assay_result": "41%"}
{"compound": "O=C(Nc1nc2ccccc2s1)C1CCN(S(=O)(=O)c2ccc(F)c(Cl)c2)CC1 [VU233]", "assay_result": "69%"}

Pending compound:
So for Cc1cccc2sc(NC(=O)C3CCN(S(=O)(=O)c4cccnc4)CC3)nc12 [VU211] , the logged % HepG2 viability (33 μM) turned out to be 72%

* * *

system: recombinant mouse NAPE-PLD (Mus musculus)
Construct: hexahistidine (His6) (C); made in house; host or cells: E. coli
measurement_protocol: In vitro fluorescence NAPE-PLD activity assay (HTS/CRC) with recombinant mouse NAPE-PLD and PED-A1
Format: biochemical
condition_description: Table 3; read-out: In vitro Emax (100% activity is baseline activity of vehicle only)
Just a reminder that ties go to false: only Emax strictly below 200% counts as true.

Some entries whose results are on file:
{"compound": "O=C(Nc1nc2ccccc2s1)C1CCN(S(=O)(=O)c2ccc(F)cc2)CC1 [VU488]", "system": "recombinant mouse NAPE-PLD (Mus musculus)", "assigned_category": "true"}
{"compound": "COc1ccc2nc(NC(=O)C3CCN(S(=O)(=O)c4ccc(F)cc4)CC3)sc2c1 [VU484]", "system": "recombinant mouse NAPE-PLD (Mus musculus)", "assigned_category": "true"}
{"compound": "Cc1cccc2sc(NC(=O)C3CCN(S(=O)(=O)c4ccc(F)cc4)CC3)nc12 [VU231]", "system": "recombinant mouse NAPE-PLD (Mus musculus)", "assigned_category": "true"}
{"compound": "Cc1cc(C)c2sc(NC(=O)C3CCN(S(=O)(=O)c4ccc(F)cc4)CC3)nc2c1 [VU534]", "system": "recombinant mouse NAPE-PLD (Mus musculus)", "assigned_category": "false"}
{"compound": "O=C(Nc1nc2ccccc2s1)C1CCN(S(=O)(=O)c2ccc(Cl)cc2)CC1 [VU541]", "system": "recombinant mouse NAPE-PLD (Mus musculus)", "assigned_category": "true"}

# TODO verify Emax < 200% strictly for this compound: Cc1cc2nc(NC(=O)C3CCN(S(=O)(=O)c4ccc(F)cc4)CC3)sc2cc1C [VU536]
false

# TODO verify Emax < 200% strictly for this compound: O=C(Nc1nc2ccccc2s1)C1CCN(S(=O)(=O)c2cccnc2)CC1 [VU203]
true

# TODO verify Emax < 200% strictly for this compound: Cc1cccc2sc(NC(=O)C3CCN(S(=O)(=O)c4ccc(F)c(Cl)c4)CC3)nc12 [VU209]
true

# TODO verify Emax < 200% strictly for this compound: Cc1ccc2nc(NC(=O)C3CCN(S(=O)(=O)c4ccc(Cl)cc4)CC3)sc2c1 [VU539]
true

* * *

Tested on: RAW264.7 mouse macrophages
measurement_protocol: Cytotoxicity (MTT) in RAW264.7 macrophages
Type: cell-based
condition_description: Table 2; Mϕ, 33 μM compound
quantity_kind: 33 μM Mϕ % Viability

{"molecule": "Cc1cc2nc(NC(=O)C3CCN(S(=O)(=O)c4ccc(F)cc4)CC3)sc2cc1C [VU536]", "33 μM Mϕ % Viability": ">85%"}
{"molecule": "Cc1cccc2sc(NC(=O)C3CCN(S(=O)(=O)c4cccnc4)CC3)nc12 [MRJ-058C]", "33 μM Mϕ % Viability": ">85%"}
{"molecule": "Cc1cccc2sc(NC(=O)C3CCN(S(=O)(=O)c4cnn(C)c4)CC3)nc12 [MRJ-058D]", "33 μM Mϕ % Viability": ">85%"}
{"molecule": "Cc1cccc2sc(NC(=O)C3CCN(S(=O)(=O)c4ccc(F)c(Cl)c4)CC3)nc12 [MRJ-058B]", "33 μM Mϕ % Viability": ">85%"}
{"molecule": "Cc1ccc(S(=O)(=O)N2CCC(C(=O)Nc3nc4c(C)cc(C)cc4s3)CC2)cc1 [VU575]", "33 μM Mϕ % Viability": ">85%"}

So for Cc1ccc2nc(NC(=O)C3CCN(S(=O)(=O)c4ccc(F)cc4)CC3)sc2c1 [VU486] , the logged 33 μM Mϕ % Viability turned out to be >85%

So for Cc1cc(C)c2sc(NC(=O)C3CCN(S(=O)(=O)c4ccc(F)cc4)CC3)nc2c1 [VU534] , the logged 33 μM Mϕ % Viability turned out to be >85%

So for Cc1ccc2sc(NC(=O)C3CCN(S(=O)(=O)c4ccc(F)cc4)CC3)nc2c1C [VU517] , the logged 33 μM Mϕ % Viability turned out to be 80%

So for Cc1cc(F)ccc1S(=O)(=O)N1CCC(C(=O)Nc2nc3c(C)cccc3s2)CC1 [MRJ-058A] , the logged 33 μM Mϕ % Viability turned out to be 55%

* * *

system: NAPE-PLD activity of RAW264.7 macrophages (Mus musculus, UniProt Q8BH82)
Construct: endogenous in cells; host or cells: RAW264.7
Sequence (Q8BH82 whole entry): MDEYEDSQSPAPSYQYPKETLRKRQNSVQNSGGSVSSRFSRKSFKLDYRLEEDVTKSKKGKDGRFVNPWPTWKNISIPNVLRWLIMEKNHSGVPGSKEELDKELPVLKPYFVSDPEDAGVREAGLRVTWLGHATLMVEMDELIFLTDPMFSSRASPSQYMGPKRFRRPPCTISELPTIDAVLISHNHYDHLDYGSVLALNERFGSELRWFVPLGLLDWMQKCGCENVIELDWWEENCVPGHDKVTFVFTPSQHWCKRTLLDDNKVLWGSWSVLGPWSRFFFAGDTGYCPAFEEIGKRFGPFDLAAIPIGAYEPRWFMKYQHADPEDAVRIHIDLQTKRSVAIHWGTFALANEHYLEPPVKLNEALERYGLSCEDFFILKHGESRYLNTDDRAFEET
measurement_protocol: Cell-based NAPE-PLD activity in RAW264.7 macrophages (PED-A1 with orlistat)
condition_description: Table 2; Mϕ, 10 μM compound, vehicle = 100%
Documented 10 μM Mϕ % NAPE-PLD activity across a set of compounds
Express your answer in %, writing the number without its unit.

Use the examples below as a reference point.
{"compound": "Cc1cc(C)c2sc(NC(=O)C3CCN(S(=O)(=O)c4ccc(F)cc4)CC3)nc2c1", "assay_result": 140}
{"compound": "Cc1ccc(S(=O)(=O)N2CCC(C(=O)Nc3nc4c(C)cc(C)cc4s3)CC2)cc1", "assay_result": 105}
{"compound": "Cc1cccc2sc(NC(=O)C3CCN(S(=O)(=O)c4cnn(C)c4)CC3)nc12 [MRJ-058D]", "assay_result": 100}
{"compound": "Cc1cccc2sc(NC(=O)C3CCN(S(=O)(=O)c4ccc(F)c(Cl)c4)CC3)nc12 [MRJ-058B]", "assay_result": 135}
{"compound": "Cc1ccc2nc(NC(=O)C3CCN(S(=O)(=O)c4ccc(F)cc4)CC3)sc2c1", "assay_result": 105}

So for `Cc1ccc2sc(NC(=O)C3CCN(S(=O)(=O)c4ccc(F)cc4)CC3)nc2c1C` , the logged 10 μM Mϕ % NAPE-PLD activity turned out to be 125

So for `Cc1cc2nc(NC(=O)C3CCN(S(=O)(=O)c4ccc(F)cc4)CC3)sc2cc1C` , the logged 10 μM Mϕ % NAPE-PLD activity turned out to be 155

So for Cc1cccc2sc(NC(=O)C3CCN(S(=O)(=O)c4cccnc4)CC3)nc12 [MRJ-058C] , the logged 10 μM Mϕ % NAPE-PLD activity turned out to be 115

* * *

system: recombinant mouse NAPE-PLD (Mus musculus)
Construct: hexahistidine (His6) (C); made in house; host or cells: E. coli
measurement_protocol: In vitro fluorescence NAPE-PLD activity assay (HTS/CRC) with recombinant mouse NAPE-PLD and PED-A1
Assay type: biochemical
condition_description: Table 4; maximal efficacy as fold increase in NAPE-PLD activity versus vehicle only
quantity_kind: Emax (95% Cl)

Use the examples below as a reference point.
{"compound_structure_string": "COc1ccc(S(=O)(=O)N2CCC(C(=O)Nc3nc4ccc(C)cc4s3)CC2)cc1", "assay_result": "1.8 (1.8-1.9) fold"}
{"compound_structure_string": "Cc1cc(F)ccc1S(=O)(=O)N1CCC(C(=O)Nc2nc3c(C)cccc3s2)CC1", "assay_result": "1.6 (1.5-1.6) fold"}

So for `Cc1ccc2nc(NC(=O)C3CCN(S(=O)(=O)c4ccc(F)cc4)CC3)sc2c1` , the logged Emax (95% Cl) turned out to be 1.8 (1.7-1.9) fold

So for `Cc1ccc(S(=O)(=O)N2CCC(C(=O)Nc3nc4c(C)cc(C)cc4s3)CC2)cc1` , the logged Emax (95% Cl) turned out to be 2.4 (2.3-2.5) fold

* * *

system: recombinant mouse NAPE-PLD (Mus musculus, UniProt Q8BH82)
Construct: hexahistidine (His6) (C); made in house; host or cells: E. coli
Sequence (Q8BH82 whole entry): as above
measurement_protocol: In vitro fluorescence NAPE-PLD activity assay (HTS/CRC) with recombinant mouse NAPE-PLD and PED-A1
Assay type: biochemical
condition_description: Table 3; read-out: In vitro EC50
Just a reminder that ties go to Not met: only EC50 strictly below 3000 nM counts as Met.

Some entries whose results are on file:
{"compound": "Cc1ccc(S(=O)(=O)N2CCC(C(=O)Nc3nc4c(C)cc(C)cc4s3)CC2)cc1 [VU575]", "assigned_category": "Met"}
{"compound": "Cc1ccc2sc(NC(=O)C3CCN(S(=O)(=O)c4ccc(F)cc4)CC3)nc2c1C [VU517]", "assigned_category": "Met"}
{"compound": "Cc1cccc2sc(NC(=O)C3CCN(S(=O)(=O)c4ccc(F)c(Cl)c4)CC3)nc12 [VU209]", "assigned_category": "Not met"}
{"compound": "O=C(Nc1nc2ccccc2s1)C1CCN(S(=O)(=O)c2cccnc2)CC1 [VU203]", "assigned_category": "Not met"}
{"compound": "Cc1cccc2sc(NC(=O)C3CCN(S(=O)(=O)c4ccc(F)cc4)CC3)nc12 [VU231]", "assigned_category": "Met"}
{"compound": "COc1ccc2nc(NC(=O)C3CCN(S(=O)(=O)c4ccc(F)cc4)CC3)sc2c1 [VU484]", "assigned_category": "Met"}
{"compound": "Cc1cccc2sc(NC(=O)C3CCN(S(=O)(=O)c4ccc(Cl)cc4)CC3)nc12 [VU542]", "assigned_category": "Met"}

// switching to the query compound
# TODO verify EC50 < 3000 nM strictly for this compound: O=C(Nc1nc2ccccc2s1)C1CCN(S(=O)(=O)c2ccc(F)cc2)CC1 [VU488]
Met
